Listed compounds paired with reported melting point

>  <Compound>
CC(=O)OC1CC2C3CCC(C(C)CCCC(C)C)C3(C)CCC2C2(C)CC(F)C(O)CC12 (stereo not given)

>  <Value reported>
148 to 150 °C

$$$$
>  <Compound>
CCOC(=O)C(C)C(NC(C)=O)C(C(C)=O)C(=O)OC (stereo not given)

>  <Value reported>
93 to 96 °C

$$$$

Return melting point (reported value) for this compound: `CCCCn1c(=O)n(CCC)c(=O)c2c3n(nc21)CCCN3`
147 to 150 °C

Return melting point (reported value) for this compound: `Cc1sc(C)c(Cc2nc3c(F)c(F)cc(F)c3s2)c1CC(=O)O`
170 to 171 °C

Return melting point (reported value) for this compound: `Cc1cc(I)ccc1-n1c(C(F)(F)F)nn(C)c1=S`
104 to 107 °C

---

Experimental readout: melting point

>  <Compound>
O=C(Nc1ccc(Cl)cc1)NC1N=C(c2ccccc2F)c2ccccc2NC1=O (racemic)

>  <melting point>
278 °C

$$$$
>  <Compound>
CC(C)n1nc(-c2c(-c3ccccc3)nn3ccc(N4CCN(C(=O)CN(C)C)CC4)cc23)ccc1=O

>  <melting point>
129 to 130 °C

$$$$
>  <Compound>
NC(=O)C1CN(CCCCN(c2ccc(F)cc2)c2ccc(F)cc2)CCN1 (stereo not given)

>  <melting point>
67.4 °C

$$$$
>  <Compound>
O=C(O)CCCCCCCn1cnc(-c2ccccc2Cl)c1-c1ccccc1Cl

>  <melting point>
145 to 146 °C

$$$$
>  <Compound>
O=C(NC(Cc1ccc(OCc2cccc(F)c2)cc1)C(=O)O)c1cn2ccc(-c3ccc(Cl)cc3)cc2n1 (stereo not given)

>  <melting point>
248 to 250 °C

$$$$
>  <Compound>
CCCNC(=O)C(C)=Cc1ccc2[nH]ccc2c1

>  <melting point>
92 to 94 °C

$$$$
>  <Compound>
CCCCCCCCCCS(=O)(=O)c1ccc(O)c(C(=O)Nc2cccc(C(F)(F)F)c2)c1

>  <melting point>
108 to 109 °C

$$$$
>  <Compound>
FC(F)(F)c1nnc2sc3ccccc3n12

>  <melting point>
140 to 141 °C

$$$$
>  <Compound>
CCCN(CCC)c1ccc(Cl)nn1

>  <melting point>
49 to 51 °C

$$$$
>  <Compound>
CCCn1nc(C)c(NC(C)=O)c1C#N

>  <melting point>
129 to 131 °C

$$$$

Return melting point (reported value) for this compound: `CCOC(=O)c1c(CN(CC)CC)nc2sc3c(c2c1-c1ccc(OC)c(OC)c1)CCN(S(=O)(=O)c1ccccc1)C3`
161 to 162 °C

Return melting point (reported value) for this compound: `O=C1N=c2ccc(Cl)cc2=N1`
320 °C

Return melting point (reported value) for this compound: `CCCn1c(=O)c2[nH]c(-c3cc(C)n(CC(=O)Nc4ccc(OC)c(OC)c4)n3)nc2n(CCC)c1=O`
285 to 290 °C

Return melting point (reported value) for this compound: `O=C(OCCOCn1cnc2c(Cl)nc(Cl)nc21)c1ccccc1`
121 to 125 °C

---

Listed compounds paired with reported melting point

>  <Compound>
O=C(c1c(Cl)cccc1Cl)P(=O)(C(=O)c1c(Cl)cccc1Cl)c1ccccc1

>  <melting point>
194 °C

$$$$
>  <Compound>
COc1ccc2c(c1)NC(=O)CC(C(=O)O)C2 (stereo not given)

>  <melting point>
202 to 204 °C

$$$$

Return melting point (reported value) for this compound: CC(NC(=S)Nc1ccc(Nc2ccccc2)nc1)C(C)(C)C (stereo not given)
168 to 170 °C

Return melting point (reported value) for this compound: `Cc1c(-n2c(C)ccc2C)cc(CC(C#N)=CNc2ccccc2)cc1-n1c(C)ccc1C`
252 °C

Return melting point (reported value) for this compound: `COc1nc(N)c(Cl)cc1C(=O)CCC1CCN(CC(C)(C)O)CC1`
108 °C

Return melting point (reported value) for this compound: `COc1ccc(/C(=C\C=C\C2CC2)C(=O)O)cc1`
158 to 160 °C

Return melting point (reported value) for this compound: `COc1cc(N)c(Cl)cc1C(=O)NCCNCc1ccc(CN(C)C)o1`
91 to 93 °C

Return melting point (reported value) for this compound: COc1ccc([C@@H]2CN(C)CC[C@@H]2NC(=S)c2ccc(C)cc2)cc1OC (relative stereo)
144 to 146 °C

Return melting point (reported value) for this compound: `ClCc1nc(NCc2ccccn2)c2c(-c3ccccc3)csc2n1`
97 to 99 °C

Return melting point (reported value) for this compound: `CCOC(=O)CCCCCCCCCCSc1nc(-c2ccccc2)c(-c2ccccc2)[nH]1`
57 to 59 °C

Return melting point (reported value) for this compound: `CCCC=Cc1c(C(C)C)nc(C(C)C)c(CO)c1-c1ccc(Cl)c(Cl)c1`
46 to 48 °C

Return melting point (reported value) for this compound: `COC(=O)c1ccc(OC)c(C=O)c1`
98 to 102 °C

Return melting point (reported value) for this compound: `COc1ccc(C2(c3ccc(OC)cc3)CCN(C[C@H]3CN(C)[C@@H]4Cc5c(Br)[nH]c6cccc(c56)[C@@]4(OC)C3)CC2)cc1`
167 to 172 °C

Return melting point (reported value) for this compound: CCOC(=O)C(C)ON1CCNC1=Nc1c(Cl)cccc1Cl (stereo not given)
79 to 80 °C

Return melting point (reported value) for this compound: `NN=c1cc(-c2c[nH]nc2-c2cccc(Cl)c2)cc[nH]1`
163 to 164 °C

---

Listed compounds paired with reported melting point

Examples from the recorded data:
>  <Compound>
O=C(O)C(O)=CC(=O)c1ccccc1

>  <Value reported>
155 to 158 °C

$$$$
>  <Compound>
COc1ccccc1Oc1c(NS(=O)(=O)c2ccc(C(C)(C)C)cc2)nc(OCCO)nc1OCCOc1ncc(Br)cn1

>  <Value reported>
73.5 to 77 °C

$$$$
>  <Compound>
CCCSc1cc2c(c3c1OC(C)(C)C3)C(c1cccc(C(=O)O)c1)=NC(C)(C)C2

>  <Value reported>
206 to 208 °C

$$$$
>  <Compound>
Cc1c(C=CCN2CCOCC2)[nH]c(=O)c2c1ccc1nc(Nc3c(Cl)cccc3Cl)n(C)c12

>  <Value reported>
175 to 177 °C

$$$$

Proceed to the following item.
Return melting point (reported value) for this compound: CC(C)CCN1C(=O)C(NC(=O)Oc2cccc(N(C)C)c2)C(=O)N(c2ccccc2)c2cc(Cl)c(Cl)cc21 (stereo not given)
163 to 164 °C

---

Experimental readout: melting point

Return melting point (reported value) for this compound: `C=CCOC(=O)c1cccc(C2=Nc3cc(C)c(-c4cccc(CF)c4)cc3NC(=O)C2)c1`
226 to 228 °C

Return melting point (reported value) for this compound: `COc1ccc(-c2[nH]c(-c3ccncc3)c(C)c2C(C)=O)cc1`
185 to 186 °C

Return melting point (reported value) for this compound: `Cn1c(=O)[nH]c2cc(F)ccc21`
207 °C

Return melting point (reported value) for this compound: Fc1ccc(C2C=C(C(F)(F)F)NC3=C2SCC=C3)cc1Br (stereo not given)
195 to 198 °C

Return melting point (reported value) for this compound: `CCCc1nn(C)c2c1N=C(c1cc(C(=O)O)ccc1OCC)NC2`
285 to 288 °C

---

Listed compounds paired with reported melting point

Examples from the recorded data:
>  <Compound>
CC(C)(C)c1cc(C=O)c2ccccc2c1O

>  <melting point>
195 to 196 °C

$$$$
>  <Compound>
Cc1ccc(S(=O)(=O)OC[C@H](O)CO)cc1

>  <melting point>
54 to 59 °C

$$$$
>  <Compound>
O=C1NC(=O)C(c2cn3c4c(cccc24)CCC3)=C1c1ccc(OCc2ccccc2)cc1

>  <melting point>
262 to 265 °C

$$$$

Return melting point (reported value) for this compound: `Nc1ccc(Oc2cccc3ccccc23)nc1`
82.2 to 83.7 °C

Return melting point (reported value) for this compound: `CCCn1nc2c(N)nc3ccccc3c2c1CC(C)(C)N`
193 to 195 °C

Return melting point (reported value) for this compound: `FC(F)(F)c1nnc(-c2ccc(Cl)cc2)n1-c1ccc(Cl)cc1`
184 °C

Return melting point (reported value) for this compound: `Cc1ccn2nc(S(=O)(=O)Nc3c(Cl)cccc3Cl)nc2n1`
126 to 129 °C

Return melting point (reported value) for this compound: `O=C(O)CCCc1cc2nc(Cl)ccc2n1S(=O)(=O)c1c(F)cccc1F`
192 to 195 °C

Return melting point (reported value) for this compound: Cc1c(F)c(N2CCC(n3ccnn3)C2)c(F)c2c1c(=O)c(C(=O)O)cn2C1CC1 (stereo not given)
228 to 230 °C

Return melting point (reported value) for this compound: `O=C(O)Cn1nc(Br)nc1Br`
147 to 152 °C
